# assay_remarks: Volume of distribution in rat at 3 mg/kg, iv after 24 hrs by LC-MS/MS analysis
# Type: ADME, organism-based
# run_conditions: in vivo
endpoint_name: Vd (L/kg)
Numbers only, in L/kg.

Task item: Need Vd, item Cc1cc(-c2ccc3c(c2)CC[C@H]3N2CCC(N(C)C(=O)N[C@@H](C)c3ccc(C#CC4CC4)c(Cl)c3Cl)CC2)ncn1
Reply: 8.48

---

# assay_remarks: Clearance in dog liver microsomes at 0.625 uM preincubated for 5 mins followed by NADPH addition and measured after 60 mins by LC-MS/MS analysis
# Format: ADME, Canis lupus familiaris, microsome
# run_conditions: read-out: CLH
For each entry below, report its microsomal CLint at 0.625 µM value.
Please format your answer as a value with the unit trailing.

compound: COc1ccc([C@H](C)NC(=O)N(C)C2CCN(C3CCc4cc(-c5cc(C)ncn5)ccc43)CC2)c(Cl)c1Cl (stereo not given in full)
endpoint_name: microsomal CLint at 0.625 µM
assay_result: 241 µL/min/mg
--
compound: COc1ccc([C@H](C)NC(=O)N(C)C2CCN(C3CCc4cc(C)ccc43)CC2)c(Cl)c1Cl (stereo not given in full)
endpoint_name: microsomal CLint at 0.625 µM
assay_result: 168 µL/min/mg
--
compound: C#Cc1ccc([C@H](C)NC(=O)N(C)C2CCN(C3CCc4cc(-c5cc(C)ncn5)ccc43)CC2)c(Cl)c1Cl (stereo not given in full)
endpoint_name: microsomal CLint at 0.625 µM
assay_result: 137 µL/min/mg

Give me microsomal CLint at 0.625 µM for each of these compounds, listed below.
1. Cc1cc(-c2ccc3c(c2)CC[C@H]3N2CCC(N(C)C(=O)N[C@@H](C)c3ccc(C#CC4CC4)c(Cl)c3Cl)CC2)ncn1
2. Cc1cc(-c2ccc3c(c2)CCC3N2CCC(N(C)C(=O)N[C@@H](C)c3ccc(C#CC4CC4)c(Cl)c3Cl)CC2)ncn1 (stereo not given in full)

Reply:
["52.2 µL/min/mg", "62.3 µL/min/mg"]

---

# assay_remarks: Protein binding in mouse plasma at 1 uM after 6 hrs by equilibrium dialysis
# Assay type: ADME, cell-free
# run_conditions: read-out: PPB (converted)
endpoint_name: fraction unbound at 6 h, 1 µM
Answers are plain numbers.

Task item: Need fraction unbound at 6 h, 1 µM, item Cc1cc(-c2ccc3c(c2)CC[C@H]3N2CCC(N(C)C(=O)N[C@@H](C)c3ccc(C#CC4CC4)c(Cl)c3Cl)CC2)ncn1
Reply: 0.0002

---

# system_tested: Growth hormone secretagogue receptor type 1 (Homo sapiens, UniProt Q92847)
# Sequence (Q92847 whole entry): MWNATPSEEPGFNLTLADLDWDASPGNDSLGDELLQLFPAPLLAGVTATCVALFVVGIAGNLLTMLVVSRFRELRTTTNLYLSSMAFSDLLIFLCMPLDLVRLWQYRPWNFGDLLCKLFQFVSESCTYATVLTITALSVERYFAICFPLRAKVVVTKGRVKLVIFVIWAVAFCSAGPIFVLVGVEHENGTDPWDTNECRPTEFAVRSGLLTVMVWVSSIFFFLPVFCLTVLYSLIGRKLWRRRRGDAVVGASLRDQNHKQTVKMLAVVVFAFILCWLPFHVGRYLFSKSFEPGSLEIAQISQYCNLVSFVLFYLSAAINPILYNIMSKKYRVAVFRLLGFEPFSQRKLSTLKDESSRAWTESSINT
# assay_remarks: Antagonist activity at recombinant human GHSR1a expressed in HEK293 cells assessed as inhibition of ghrelin-induced intracellular calcium release incubated for 20 secs and measured after 2 mins by FLIPR assay
endpoint_name: log10 IC50 (log10 of the value in nM)
Scale: decimal log of IC50, IC50 in nM.

compound: Cc1cc(-c2ccc3c(c2)CCC3N2CCC(N(C)C(=O)N[C@@H](C)c3ccc(C4CC4)c(Cl)c3Cl)CC2)ncn1 (stereo not given in full)
system_tested: Growth hormone secretagogue receptor type 1 (Homo sapiens, UniProt Q92847)
log10 IC50: 3.46

Give me log10 IC50 for each of these compounds, listed below.
1. COc1ccc([C@H](C)NC(=O)N(C)C2CCN(C3CCc4cc(C)ccc43)CC2)c(Cl)c1Cl (stereo not given in full)
2. CC[C@H](NC(=O)N(C)C1CCN(C2CCc3cc(-c4cc(C)ncn4)ccc32)CC1)c1ccc(C#CC2CC2)c(Cl)c1Cl (stereo not given in full)
3. Cc1cc(-c2ccc3c(c2)CC[C@H]3N2CCC(N(C)C(=O)N[C@@H](C)c3ccc(C#CC4CC4)c(Cl)c3Cl)CC2)ncn1
4. Cc1cc(-c2ccc3c(c2)CC[C@H]3N2CC3(CCN(C(=O)N[C@@H](C)c4ccc(-c5cnccn5)c(Cl)c4Cl)CC3)C2)ncn1
5. Cc1cc(-c2ccc3c(c2)CCC3N2CCC(N(C)C(=O)NCc3cccc(Cl)c3Cl)CC2)ncn1 (stereo not given)
6. Cc1cc(-c2ccc3c(c2)CCC3N2CCC(N(C)C(=O)N[C@@H](CC3CC3)c3ccc(-c4cnccn4)c(Cl)c3Cl)CC2)ncn1 (stereo not given in full)
7. COc1ccc([C@H](C)NC(=O)N(C)C2CCN(C3CCc4cc(N)ccc43)CC2)c(Cl)c1Cl (stereo not given in full)
8. Cc1cc(-c2ccc3c(c2)CCC3N2CCC(N(C)C(=O)NC(C)c3cccc(Cl)c3Cl)CC2)ncn1 (stereo not given)

Reply:
1. 2.52
2. 2.28
3. 1.83
4. 3.08
5. 3.43
6. 3.66
7. 3.18
8. 3.37

Give me log10 IC50 for each of these compounds, listed below.
1. C[C@H](NC(=O)N(C)C1CCN(C2CCc3cc(-c4cncnc4)ccc32)CC1)c1ccc(C#CC2CC2)c(Cl)c1Cl (stereo not given in full)
2. Cc1ccc2c(c1)CCC2N1CCC(N(C)C(=O)N[C@@H](C)c2ccc(C#C[Si](C)(C)C)c(Cl)c2Cl)CC1 (stereo not given in full)
3. Cc1cc(-c2ccc3c(c2)CC[C@@H]3N2CCC(N(C)C(=O)N[C@@H](C)c3ccc(C#CC4CC4)c(Cl)c3Cl)CC2)ncn1
4. COc1ccc([C@H](C)NC(=O)N(C)C2CCN(C3CCc4cc(-n5nccn5)ccc43)CC2)c(Cl)c1Cl (stereo not given in full)
5. Cc1cc(-c2ccc3c(c2)CCC3N2CCC(N(C)C(=O)N[C@H](c3ccc(-c4cnccn4)c(Cl)c3Cl)C(F)(F)F)CC2)ncn1 (stereo not given in full)

Reply:
1: 1.93; 2: 3.30; 3: 3.11; 4: 2.38; 5: 3.91
